- experiment-description: Pharmacokinetic properties in rats
- Format: in vivo, SD rats
- condition: male, SD, plasma; rat, po 6 mg/kg
measurement-kind: MRT (h)

Some entries whose results are on file:
O=c1ncn2nc(Oc3ccc(F)cc3)ccc2c1-c1c(Cl)cccc1Cl ... 5.73
O=c1ncn2nc(Oc3cc(F)c(F)cc3F)ccc2c1-c1c(Cl)cccc1Cl ... 4.7

P: O=c1ncn2nc(Oc3ccc(F)cc3F)ccc2c1-c1c(Cl)cccc1Cl
Q: O=c1ncn2nc(Sc3ccc(F)cc3F)ccc2c1-c1c(Cl)cccc1Cl [VX-745, reference compound]
Would you mind telling me which has the lower recorded MRT between P and Q ? Give the label of your selection. Q

----------
- experiment-description: Pharmacokinetic properties in mice
- Format: in vivo, ICR mice
- condition: po 10 mg/kg vs iv 3 mg/kg
measurement-kind: BA (%)

P: O=c1ncn2nc(Oc3ccc(F)cc3F)ccc2c1-c1cc(Cl)ccc1Cl
Q: O=c1ncn2nc(Sc3ccc(F)cc3F)ccc2c1-c1c(Cl)cccc1Cl [VX-745, reference compound]
Would you kindly point out which of P and Q has the smaller BA figure? Use the label to indicate which entry you chose. Q
(Q: 20.2%, P: 119.3%)

A: O=c1ncn2nc(Oc3ccc(F)cc3F)ccc2c1-c1c(F)cccc1Cl
B: O=c1ncn2nc(Oc3ccc(F)cc3)ccc2c1-c1c(Cl)cccc1Cl
Lab note: record which item had the higher BA, A or B . Identify your pick by its label. B

----------
- Tested on: BV-2 cells
- experiment-description: Inhibition of inflammation in LPS-stimulated BV-2 cells (ELISA of inflammatory factors)
- Type: cell-based
- condition: Mus musculus, 100 ng/mL LPS 4 hours, read-out: BV-2 Rf IC50
measurement-kind: IC50 (µM)

O=c1ncn2nc(Oc3ccc(Cl)cc3Br)ccc2c1-c1c(Cl)cccc1Cl [Compound I-15] ... 0.132

P: O=c1ncn2nc(Oc3ccc(Cl)cc3Cl)ccc2c1-c1c(Cl)cccc1Cl [Compound I-20]
Q: O=c1ncn2nc(Oc3cccc(Cl)c3Cl)ccc2c1-c1c(Cl)cccc1Cl [Compound I-12]
R: O=c1ncn2nc(Oc3ccc(F)c(Br)c3)ccc2c1-c1c(Cl)cccc1Cl [Compound I-5]
S: CC(C)N1CCN(c2cc3c(-c4c(Cl)cccc4Cl)c(=O)ncn3nc2Oc2ccc(F)cc2F)CC1 [Compound I-60]
T: O=c1ncn2nc(Oc3ccc(F)cc3Cl)ccc2c1-c1c(Cl)cccc1Cl [Compound I-18]
Arrange by IC50, high to low. Output the labels ranked as instructed. Q, R, P, S, T

----------
- assay-target: p38α (Homo sapiens, UniProt Q16539)
- Sequence (Q16539 whole entry): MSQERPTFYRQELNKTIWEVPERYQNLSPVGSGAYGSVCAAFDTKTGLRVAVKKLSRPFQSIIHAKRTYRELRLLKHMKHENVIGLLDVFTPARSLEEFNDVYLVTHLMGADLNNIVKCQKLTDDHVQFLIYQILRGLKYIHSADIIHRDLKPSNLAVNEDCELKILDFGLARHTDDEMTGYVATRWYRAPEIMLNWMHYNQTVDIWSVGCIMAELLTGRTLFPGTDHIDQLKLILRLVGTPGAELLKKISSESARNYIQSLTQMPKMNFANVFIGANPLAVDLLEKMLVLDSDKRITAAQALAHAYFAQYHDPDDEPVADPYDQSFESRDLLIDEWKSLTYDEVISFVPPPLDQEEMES
- experiment-description: In vitro inhibition of p38 kinase (LANCE Ultra TR-FRET)
- Format: biochemical
- condition: read-out: Kinase in vitro IC50(nM) p38α
measurement-kind: IC50 (nM)

I: O=c1ncn2nc(Oc3ccccc3Br)ccc2c1-c1c(Cl)cccc1Cl [Compound I-17]
II: O=c1ncn2nc(Oc3ccc(Cl)cc3Cl)ccc2c1-c1c(Cl)cccc1Cl [Compound I-20]
Select one. Lower IC50: I or II Write the label of whichever entry you select. II

1: O=c1ncn2nc(Oc3c(F)ccc(F)c3Cl)ccc2c1-c1c(Cl)cccc1Cl [Compound I-29]
2: O=c1ncn2nc(Oc3ccc(F)cc3F)ccc2c1-c1cccc(Cl)c1Cl [Compound I-52]
3: COc1ccc(Oc2ccc3c(-c4c(Cl)cccc4Cl)c(=O)ncn3n2)c(Cl)c1 [Compound I-9]
4: O=c1ncn2nc(OC3CCOCC3)ccc2c1-c1c(Cl)cccc1Cl [Compound I-2]
5: O=c1ncn2nc(Oc3ccc(F)cc3F)ccc2c1-c1ccc(Cl)cc1Cl [Compound I-56]
Ordering criterion: IC50; begin with the maximum. Put the labels in the order asked and list them. 4, 3, 2, 1, 5

----------
- experiment-description: Pharmacokinetic properties in mice
- Type: in vivo, ICR mice
- condition: male, ICR, mouse, plasma, iv 3 mg/kg
measurement-kind: clearance (mL/min/kg)

A: O=c1ncn2nc(Sc3ccc(F)cc3F)ccc2c1-c1c(Cl)cccc1Cl [VX-745, reference compound]
B: O=c1ncn2nc(Oc3ccc(F)cc3F)ccc2c1-c1c(Cl)cccc1Cl
Please compare: A and B . Report which one has the smaller clearance value. The response must carry the label of the picked entry. B
(B: 6.67 mL/min/kg, A: 18.3 mL/min/kg)

----------
- assay-target: p38α (Homo sapiens)
- experiment-description: In vitro inhibition of p38 kinase (LANCE Ultra TR-FRET)
- Type: biochemical
- condition: read-out: Kinase in vitro IC50(nM) p38α
measurement-kind: IC50 (nM)

O=c1ncn2nc(OC3CC=CC3)ccc2c1-c1c(Cl)cccc1Cl ... 414
CC(C)N1CCN(c2cc3c(-c4c(Cl)cccc4Cl)c(=O)ncn3nc2Oc2ccc(F)cc2F)CC1 ... 14.8
O=c1ncn2nc(Oc3ccc(F)cc3F)c(N3CCOCC3)cc2c1-c1c(Cl)cccc1Cl ... 11.7
Cc1ccc(Oc2ccc3c(-c4c(Cl)cccc4Cl)c(=O)ncn3n2)cc1F ... 137
O=c1ncn2nc(Oc3ccc(F)cc3F)c(-c3ccncc3)cc2c1-c1c(Cl)cccc1Cl ... 81.3
O=c1ncn2nc(Oc3cccc(Br)c3)ccc2c1-c1c(Cl)cccc1Cl ... 60.6

A: O=c1ncn2nc(Oc3ccc(F)c(Br)c3)ccc2c1-c1c(Cl)cccc1Cl
B: O=c1ncn2nc(Oc3ccccc3F)ccc2c1-c1c(Cl)cccc1Cl
Param metric = IC50; output whichever of A , B has the minimum value. API: response body contains the label of the selected item. B

----------
- assay-target: p38α (Homo sapiens, UniProt Q16539)
- experiment-description: In vitro inhibition of p38 kinase (LANCE Ultra TR-FRET)
- Format: biochemical
- condition: read-out: Kinase in vitro IC50(nM) p38α
measurement-kind: IC50 (nM)

O=c1ncn2nc(Oc3ccc(Br)cc3)ccc2c1-c1c(Cl)cccc1Cl ... 35.6
Cc1cccc(C)c1-c1c(=O)ncn2nc(Oc3ccc(F)cc3F)ccc12 ... 35.4
Cc1cc(Cl)ccc1Oc1ccc2c(-c3c(Cl)cccc3Cl)c(=O)ncn2n1 ... 49.8
O=c1ncn2nc(Oc3ccc(F)cc3F)ccc2c1-c1c(Cl)cccc1Cl ... 9.87

a: O=c1ncn2nc(Oc3cc(F)c(F)cc3F)ccc2c1-c1c(Cl)cccc1Cl
b: O=c1ncn2nc(Oc3ccc(F)cc3F)ccc2c1-c1ccc(Cl)c(Cl)c1
Looking only at measured IC50, which entry is lower, a or b ? Mark your answer with the label of the selected entry. a

----------
- experiment-description: Pharmacokinetic properties in rats
- Format: in vivo, SD rats
- condition: male, SD, plasma; rat, iv 3 mg/kg; read-out: Vss (iv)
measurement-kind: Vd (L/kg)

a: O=c1ncn2nc(Oc3ccc(F)cc3F)ccc2c1-c1c(Cl)cccc1Cl
b: O=c1ncn2nc(Sc3ccc(F)cc3F)ccc2c1-c1c(Cl)cccc1Cl [VX-745, reference compound]
Compare reported Vd values for a and b . Which is lower? Answer = label. a

----------
- assay-target: p38β (Homo sapiens, UniProt Q15759)
- Sequence (Q15759 whole entry): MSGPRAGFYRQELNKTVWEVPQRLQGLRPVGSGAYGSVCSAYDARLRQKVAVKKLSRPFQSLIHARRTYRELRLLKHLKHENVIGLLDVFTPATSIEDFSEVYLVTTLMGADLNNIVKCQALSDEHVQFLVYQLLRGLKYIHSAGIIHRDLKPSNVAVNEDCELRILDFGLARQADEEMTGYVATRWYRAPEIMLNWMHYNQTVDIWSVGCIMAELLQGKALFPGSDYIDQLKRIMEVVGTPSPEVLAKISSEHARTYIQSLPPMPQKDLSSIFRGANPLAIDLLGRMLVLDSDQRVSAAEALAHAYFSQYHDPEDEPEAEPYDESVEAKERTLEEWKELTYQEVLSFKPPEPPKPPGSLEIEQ
- experiment-description: In vitro inhibition of p38 kinase (LANCE Ultra TR-FRET)
- Type: biochemical
- condition: read-out: Kinase in vitro IC50(nM) p38β
measurement-kind: IC50 (nM)

Worked cases, answers included:
O=c1ncn2nc(Oc3cccc(Cl)c3Cl)ccc2c1-c1c(Cl)cccc1Cl [Compound I-12] ... 302
O=c1ncn2nc(Oc3ccc(F)cc3Cl)ccc2c1-c1c(Cl)cccc1Cl [Compound I-18] ... 97.1
O=c1ncn2nc(Oc3ccc(F)cc3F)ccc2c1-c1c(Cl)cccc1Cl [Compound I-4] ... 47.4

a: Cc1ccc(Oc2ccc3c(-c4c(Cl)cccc4Cl)c(=O)ncn3n2)cc1F [Compound I-11]
b: O=c1ncn2nc(Oc3ccccc3F)ccc2c1-c1c(Cl)cccc1Cl [Compound I-27]
Which has the higher IC50, a or b ? Your answer should be the label of the entry you select. a
(a: 1220 nM, b: 109 nM)

1: O=c1ncn2nc(Oc3c(F)ccc(F)c3Cl)ccc2c1-c1c(Cl)cccc1Cl [Compound I-29]
2: O=c1ncn2nc(Oc3cccc(F)c3F)ccc2c1-c1c(Cl)cccc1Cl [Compound I-23]
Please indicate which entry, 1 or 2 , has the lower recorded IC50 value. Refer to your chosen entry by its label in the reply. 2

----------
- experiment-description: Pharmacokinetic properties in rats
- Assay type: in vivo, SD rats
- condition: rat, po 6 mg/kg, 5-1440 minutes
# key: entry, value: AUClast (po)

Completed entries (count: 3):
O=c1ncn2nc(Oc3cc(F)c(F)cc3F)ccc2c1-c1c(Cl)cccc1Cl ... 2994 (h)*(ng/mL)
O=c1ncn2nc(Oc3ccc(F)cc3)ccc2c1-c1c(Cl)cccc1Cl ... 7172 (h)*(ng/mL)
O=c1ncn2nc(Sc3ccc(F)cc3F)ccc2c1-c1c(Cl)cccc1Cl [VX-745, reference compound] ... 1644.5 (h)*(ng/mL)

Please examine the following record next.
The compound identified as `O=c1ncn2nc(Oc3ccc(F)cc3F)ccc2c1-c1c(Cl)cccc1Cl` registered its AUClast (po) at 8857.1 (h)*(ng/mL)

Data provenance: patent US20220048915A1
